Reported TGI is given for each of the following compounds.
Test system: HOP-18 NSCLC
Assay: NCI tumour cell line growth inhibition, 48 h

compound	TGI
CCOC(=O)/C=C(/CN1C(=O)c2ccccc2C1=O)c1ccccc1	> 100 µM
COc1ccc(/C=[N+](\[O-])[C@H](COCc2ccccc2)c2ccccc2)cc1	> 100 µM
O=C(N=Nc1c(O)[nH]c2ccccc12)c1ccccc1O	> 100 µM
CC1=C(N2CC2)C(=O)c2nc3n(c2C1=O)CCC3O (stereo not drawn)	> 100 µM
CC(C)(C)N=CN1CCC(C(c2ccccc2)c2ccccc2)CC1	> 100 µM

Exercise: If you can, please state the reported TGI value of `Nc1ccc2c(c1)[O][Sn]([c]1ccccc1)([c]1ccccc1)[O]C2=O` .
Key: 29 µM

Exercise: If you can, please state the reported TGI value of CCCCCCCCCCCCC(SCCNC(=O)CCNC(=O)C(O)C(C)(C)COP(=O)(O)OP(=O)(O)OCC1OC(n2cnc3c(N)ncnc32)C(O)C1OP(=O)(O)O)C(=O)NCC(N)=O (stereo not drawn) .
Key: > 100 µM

Exercise: If you can, please state the reported TGI value of `Cc1cc2occ(C)c(=O)c2c2c1OC(C)(C)S2` .
Key: > 100 µM

Exercise: If you can, please state the reported TGI value of `[Cl][Sn]([c]1ccccc1)[c]1ccccc1` .
Key: 9.24 µM

Exercise: If you can, please state the reported TGI value of `CC(C)(C)C([O-])=C1C(=O)c2ccccc2C1=O.CC(C)(C)C([O-])=C1C(=O)c2ccccc2C1=O.CC[O-].CC[O-].[Ti+4]` .
Key: 83.3 µM

Exercise: If you can, please state the reported TGI value of CCCCCCCCCCCC(=O)C1=C(O)C(O)CCC1=O (stereo not drawn) .
Key: 86.5 µM

Exercise: If you can, please state the reported TGI value of CCc1cccc(C)c1NC(=O)CC1Sc2ccccc2NC1=O (stereo not drawn) .
Key: > 100 µM

Exercise: If you can, please state the reported TGI value of `CC[C@@]1(OC(=O)CCC(=O)O)C(=O)OCc2c1cc1n(c2=O)Cc2cc3ccccc3nc2-1` .
Key: > 100 µM

Exercise: If you can, please state the reported TGI value of C=CCN(N=O)C(=O)N(CCC)CCCC(NC(C)=O)C(=O)NCc1ccccc1 (stereo not drawn) .
Key: > 100 µM

Exercise: If you can, please state the reported TGI value of CC1(C)OC2C(=O)OC(COCc3ccccc3)C2O1 (stereo not drawn) .
Key: > 100 µM

Exercise: If you can, please state the reported TGI value of `CC(=O)O/C(C)=C\C(=O)O/N=C(\N)c1ccc(C)cc1` .
Key: 98.6 µM

Exercise: If you can, please state the reported TGI value of `c1ccc(COc2ccc3[nH]c4c(ncc5[nH]c6ccccc6c54)c3c2)cc1` .
Key: 26.1 µM

Exercise: If you can, please state the reported TGI value of `CCOC(=O)c1c2ccc(/C=C/C(=O)OC)ccc-2c(C(=O)OCC)c1N` .
Key: > 100 µM
